In this section we review reported melting point values for a set of compounds.

Request: Fill blank: measured melting point of the compound "COC(=O)c1cc(OC)c(Cc2c(N)nc(N)nc2Cl)c(OC)c1" is ____.
Result: 228 to 229 °C

Request: Fill blank: measured melting point of the compound "CCOC(=O)N(N)C(=O)c1cc(Cl)ccc1O" is ____.
Result: 172 °C

Request: Fill blank: measured melting point of the compound "CCOC(=O)Cc1sc(Sc2ccnc(SC)n2)nc1C" is ____.
Result: 68 to 72 °C

Request: Fill blank: measured melting point of the compound "Nc1c(F)c(F)nc(F)c1Cl" is ____.
Result: 118 to 120 °C

Request: Fill blank: measured melting point of the compound CC(C)(C)C(NC(=O)Cc1ccc(C#N)cc1)NC(=NC#N)Nc1cccc2ncccc12 (stereo not given) is ____.
Result: 194 to 196 °C

Request: Fill blank: measured melting point of the compound "CC(C)CN1C(N)=CC(=O)N2CCN=C21" is ____.
Result: 230 to 232 °C

Request: Fill blank: measured melting point of the compound "N=C(Nc1ccc2[nH]cc(-c3ccncc3)c2c1)c1cccs1" is ____.
Result: 183 to 185 °C
